- Test system: IGROV
- test_method_notes: SRB colorimetric cell growth inhibition assay, IGROV
- assay_conditions: read-out: LC50; IGROV cells; cell killing; SRB, 48 hours exposure
Starred links: 1 amine or outer side, 2 acyl side, 3 side chain; linkers in the order of their positions; H or OH if unused. Positions of bridges follow the written chain, without caps; N, C: chain ends. Non-standard residues stand in square brackets, D forms with d. Residues, ends and D or L forms follow the SMILES beside them. Hexanoyl(3S-OH,4R-NH2,5-Me) = CC(C)[C@@H](N[*:1])[C@@H](O)CC(=O)[*:2]; NMeY = CN[C@@H](Cc1ccc(O)cc1)C(=O)O; NMeF = CN[C@@H](Cc1ccccc1)C(=O)O; dNMeL = CN[C@H](CC(C)C)C(=O)O; Hiv = CC(C)[C@H](O)C(=O)O; Lac = C[C@H](O)C(=O)O
measure_name: CC50 (nM)

[[record]]
compound = "CC(C)C[C@@H]1NC(=O)[C@H](C(C)C)OC(=O)C[C@H](O)[C@@H](C(C)C)NC(=O)[C@@H](NC(=O)[C@@H](CC(C)C)N(C)C(=O)[C@@H]2CCCN2C(=O)[C@H](C)O)[C@@H](C)OC(=O)[C@H](Cc2ccccc2)N(C)C(=O)[C@@H]2CCCN2C1=O [Phe^5 tamandarin B, [N-MePhe^5]-Tamandarin B] (H-[Lac]P[dNMeL]T[Hexanoyl(3S-OH,4R-NH2,5-Me)][Hiv]LP[NMeF]; ester 4-C)"
tested_target = "IGROV"
numeric_readout = 124

[[record]]
compound = "COc1ccc(C[C@H]2C(=O)O[C@H](C)[C@H](NC(=O)[C@@H](CC(C)C)N(C)C(=O)[C@@H]3CCCN3C(=O)[C@H](C)O)C(=O)N[C@H](C(C)C)[C@@H](O)CC(=O)O[C@@H](C(C)C)C(=O)N[C@@H](CC(C)C)C(=O)N3CCC[C@H]3C(=O)N2C)cc1 [tamandarin B, Tamandarin B, reference compound] (H-[Lac]P[dNMeL]T[Hexanoyl(3S-OH,4R-NH2,5-Me)][Hiv]LP[NMeY](Me); ester 4-C)"
tested_target = "IGROV"
numeric_readout = 133


The measured values listed here are drawn from patent US20070149446A1.
